Molecular target: 5-hydroxytryptamine receptor 3A (Homo sapiens)
Sequence (P46098 whole entry): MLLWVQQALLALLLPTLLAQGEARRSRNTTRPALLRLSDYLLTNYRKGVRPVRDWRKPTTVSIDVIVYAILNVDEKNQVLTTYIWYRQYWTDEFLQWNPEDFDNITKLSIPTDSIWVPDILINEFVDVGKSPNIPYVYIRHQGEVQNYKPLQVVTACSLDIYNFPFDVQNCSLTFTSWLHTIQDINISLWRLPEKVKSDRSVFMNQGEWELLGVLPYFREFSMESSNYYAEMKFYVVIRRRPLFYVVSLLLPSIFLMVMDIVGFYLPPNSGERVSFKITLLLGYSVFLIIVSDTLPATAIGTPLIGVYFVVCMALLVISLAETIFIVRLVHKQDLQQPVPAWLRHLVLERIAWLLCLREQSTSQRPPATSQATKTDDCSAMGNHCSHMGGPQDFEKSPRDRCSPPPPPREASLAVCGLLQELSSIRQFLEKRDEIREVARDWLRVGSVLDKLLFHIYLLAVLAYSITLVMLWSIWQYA
measurement type: Ki (nM)

INSERT INTO results (sample_smiles, value_units, quantitative_readout) VALUES
  ('Cn1nc2c3c(cccc31)C(=O)N([C@H]1CN3CCC1CC3)C2', 'nM', 1.7),
  ('CCn1nc2c3c(cccc31)C(=O)N([C@@H]1CN3CCC1CC3)C2', 'nM', 1.6),
  ('Cn1cc2c3c(cccc31)C(=O)N([C@H]1CN3CCC1CC3)C2', 'nM', 0.9),
  ('O=C1c2cccc3c2c(nn3Cc2ccccc2)CN1[C@H]1CN2CCC1CC2', 'nM', 7.1);

----------
Dear all, this message contains Ki results, target or system UniProtKB P46098.
measurement type: Ki (nM)

INSERT INTO measurements (sample_smiles, quantitative_readout) VALUES
  ('Cn1nc2c3c(cc(F)cc31)C(=O)N([C@H]1CN3CCC1CC3)C2', 2),
  ('CCn1nc2c3c(cccc31)C(=O)N([C@H]1CN3CCC1CC3)C2', 2),
  ('Cn1cc2c3c(cccc31)C(=O)N([C@@H]1CN3CCC1CC3)C2', 0.7),
  ('CC(C)Cn1nc2c3c(cccc31)C(=O)N([C@@H]1CN3CCC1CC3)C2', 2.4),
  ('Cn1nc2c3c(cccc31)C(=O)N([C@@H]1CN3CCC1CC3)C2', 0.7);

----------
Documented EC50 across a set of compounds
Target: 5-hydroxytryptamine receptor 3A (Homo sapiens, UniProt P46098)
Sequence (P46098 whole entry): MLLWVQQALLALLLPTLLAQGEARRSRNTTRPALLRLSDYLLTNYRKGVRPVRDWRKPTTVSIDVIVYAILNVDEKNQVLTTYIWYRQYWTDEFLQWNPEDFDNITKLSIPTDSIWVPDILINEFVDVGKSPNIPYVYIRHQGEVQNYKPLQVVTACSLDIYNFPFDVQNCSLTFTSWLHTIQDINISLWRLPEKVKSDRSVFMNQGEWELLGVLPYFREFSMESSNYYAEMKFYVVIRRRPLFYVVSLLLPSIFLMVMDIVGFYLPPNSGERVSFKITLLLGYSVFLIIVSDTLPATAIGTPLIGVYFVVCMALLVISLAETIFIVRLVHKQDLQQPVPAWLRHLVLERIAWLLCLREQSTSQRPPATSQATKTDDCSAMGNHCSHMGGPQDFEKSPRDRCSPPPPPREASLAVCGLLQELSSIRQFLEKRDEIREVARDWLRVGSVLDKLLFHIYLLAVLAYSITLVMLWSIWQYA
Assay: Partial agonist activity at human 5HT3A receptor expressed in HEK293 cells assessed as decrease in 10 uM 5-chloroindole-induced increase in intracellular calcium release
Type: functional, cell-based
measurement type: EC50 (nM)

INSERT INTO measurements (compound, value_units, quantitative_readout) VALUES
  ('Cn1nc2c3c(cccc31)C(=O)N([C@H]1CN3CCC1CC3)C2', 'nM', 6.9),
  ('O=C(N[C@H]1CN2CCC1CC2)c1c[nH]c2ccsc2c1=O [PUMOSETRAG]', 'nM', 9.2);

----------
molecular target: Cytochrome P450 3A4 (Homo sapiens, UniProt P08684)
Sequence (P08684 whole entry): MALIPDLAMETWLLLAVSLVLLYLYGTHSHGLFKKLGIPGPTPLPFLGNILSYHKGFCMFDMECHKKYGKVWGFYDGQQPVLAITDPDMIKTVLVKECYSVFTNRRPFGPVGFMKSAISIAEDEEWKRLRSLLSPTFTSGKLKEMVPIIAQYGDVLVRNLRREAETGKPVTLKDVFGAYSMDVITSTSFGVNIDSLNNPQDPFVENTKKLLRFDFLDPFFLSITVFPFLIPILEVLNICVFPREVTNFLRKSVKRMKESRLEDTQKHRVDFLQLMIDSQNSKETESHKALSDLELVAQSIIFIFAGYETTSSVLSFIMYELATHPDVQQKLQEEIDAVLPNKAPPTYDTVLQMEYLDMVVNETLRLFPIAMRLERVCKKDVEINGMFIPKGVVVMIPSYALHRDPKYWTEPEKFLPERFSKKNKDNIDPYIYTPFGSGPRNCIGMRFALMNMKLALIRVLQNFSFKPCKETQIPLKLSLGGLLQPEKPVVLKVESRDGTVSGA
pIC50: −log10 of the molar value.
measurement type: pIC50

INSERT INTO assay_data (compound, measurement_type, result) VALUES
  ('Cn1nc2c3c(cccc31)C(=O)N([C@H]1CN3CCC1CC3)C2', 'pIC50', '> 5.00'),
  ('O=C(N[C@H]1CN2CCC1CC2)c1c[nH]c2ccsc2c1=O [PUMOSETRAG]', 'pIC50', 5.03),
  ('O=C1c2cccc3[nH]nc(c23)CN1[C@H]1CN2CCC1CC2', 'pIC50', '> 5.00');

----------
Documented microsomal CLint across a set of compounds
assay: Intrinsic clearance in human liver microsomes assessed per mg of protein; assay type: ADME, Microsome
measurement type: microsomal CLint (µL/min/mg)

INSERT INTO measurements (sample_smiles, quantitative_readout) VALUES
  ('O=C1c2cccc3[nH]nc(c23)CN1[C@H]1CN2CCC1CC2', 7.3),
  ('Cn1nc2c3c(cccc31)C(=O)N([C@H]1CN3CCC1CC3)C2', 3.8),
  ('O=C(N[C@H]1CN2CCC1CC2)c1c[nH]c2ccsc2c1=O', 24);

----------
Documented pEC50 across a set of compounds
Target: 5-hydroxytryptamine receptor 3A (Homo sapiens, UniProt P46098)
Sequence (P46098 whole entry): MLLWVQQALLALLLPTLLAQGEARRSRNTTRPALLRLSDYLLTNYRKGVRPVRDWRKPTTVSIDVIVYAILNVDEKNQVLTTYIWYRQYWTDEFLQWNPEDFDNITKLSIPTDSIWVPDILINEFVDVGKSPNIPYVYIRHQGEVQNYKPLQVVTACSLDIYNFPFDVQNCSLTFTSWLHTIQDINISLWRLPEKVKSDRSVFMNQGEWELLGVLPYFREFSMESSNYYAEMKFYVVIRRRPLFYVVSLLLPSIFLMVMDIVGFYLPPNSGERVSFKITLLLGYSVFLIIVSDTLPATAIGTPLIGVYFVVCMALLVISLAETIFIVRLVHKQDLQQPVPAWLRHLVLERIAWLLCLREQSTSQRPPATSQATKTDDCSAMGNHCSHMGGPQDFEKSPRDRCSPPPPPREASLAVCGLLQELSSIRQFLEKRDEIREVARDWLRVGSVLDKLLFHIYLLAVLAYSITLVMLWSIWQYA
Assay: Partial agonist activity at human 5HT3A receptor expressed in HEK293 cells assessed as effect on serotonin-induced response
Assay type: functional, cell-based
pEC50: −log10 of the molar value.
measurement type: pEC50

INSERT INTO assay_data (sample_smiles, tgt, measurement_type, quantitative_readout) VALUES
  ('O=C(N[C@H]1CN2CCC1CC2)c1c[nH]c2ccsc2c1=O', '5-hydroxytryptamine receptor 3A (Homo sapiens, UniProt P46098)', 'pEC50', 8.27),
  ('Cn1nc2c3c(cccc31)C(=O)N([C@H]1CN3CCC1CC3)C2', '5-hydroxytryptamine receptor 3A (Homo sapiens, UniProt P46098)', 'pEC50', 7.90);

----------
test: Solubility of the compound at pH 7.4 phosphate buffered saline; format: physicochemical
measurement type: solubility

INSERT INTO measurements (sample_smiles, result) VALUES
  ('Cn1nc2c3c(cccc31)C(=O)N([C@H]1CN3CCC1CC3)C2', '> 500 µM');

The reported numbers originate from ChEMBL document CHEMBL1641372.
